B1: library; a variant is named by its letters at N, in order (parent)
chain: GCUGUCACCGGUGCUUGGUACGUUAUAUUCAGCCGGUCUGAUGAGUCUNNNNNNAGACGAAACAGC

Variants of: B1
experiment_notes: FACS-Seq fitted mean relative fluorescence mCherry/BFP with ligand (log10 relative fluorescence); HEK293T overexpressing SLC46A1; ligand concentration (+) FACS-Seq: 6 mM; higher = higher reporter protein expression
applied_conditions: with (6R,S)-folinic acid; ligand present: yes
Class (by FACS-Seq fitted mean (log10)) -- 0 (below 0.2), 1 (0.2 to below 0.4), 2 (0.4 or more)

| sequence_input | category |
| --- | --- |
| GCUGUCACCGGUGCUUGGUACGUUAUAUUCAGCCGGUCUGAUGAGUCUUAUUUUAGACGAAACAGC [UAUUUU] | 1 |
| GCUGUCACCGGUGCUUGGUACGUUAUAUUCAGCCGGUCUGAUGAGUCUCAUAACAGACGAAACAGC [CAUAAC] | 1 |
| GCUGUCACCGGUGCUUGGUACGUUAUAUUCAGCCGGUCUGAUGAGUCUCGUCUCAGACGAAACAGC [CGUCUC] | 2 |
| GCUGUCACCGGUGCUUGGUACGUUAUAUUCAGCCGGUCUGAUGAGUCUGGGACUAGACGAAACAGC [GGGACU] | 0 |
| GCUGUCACCGGUGCUUGGUACGUUAUAUUCAGCCGGUCUGAUGAGUCUUGGGCCAGACGAAACAGC [UGGGCC] | 0 |
| GCUGUCACCGGUGCUUGGUACGUUAUAUUCAGCCGGUCUGAUGAGUCUGUGGACAGACGAAACAGC [GUGGAC] | 0 |
| GCUGUCACCGGUGCUUGGUACGUUAUAUUCAGCCGGUCUGAUGAGUCUCGAAAGAGACGAAACAGC [CGAAAG] | 0 |
| GCUGUCACCGGUGCUUGGUACGUUAUAUUCAGCCGGUCUGAUGAGUCUUUAAAAAGACGAAACAGC [UUAAAA] | 2 |
| GCUGUCACCGGUGCUUGGUACGUUAUAUUCAGCCGGUCUGAUGAGUCUACGAAGAGACGAAACAGC [ACGAAG] | 2 |
| GCUGUCACCGGUGCUUGGUACGUUAUAUUCAGCCGGUCUGAUGAGUCUUGCAUUAGACGAAACAGC [UGCAUU] | 0 |
| GCUGUCACCGGUGCUUGGUACGUUAUAUUCAGCCGGUCUGAUGAGUCUACCUAUAGACGAAACAGC [ACCUAU] | 2 |
| GCUGUCACCGGUGCUUGGUACGUUAUAUUCAGCCGGUCUGAUGAGUCUGUCCGAAGACGAAACAGC [GUCCGA] | 1 |
| GCUGUCACCGGUGCUUGGUACGUUAUAUUCAGCCGGUCUGAUGAGUCUAAAGGAAGACGAAACAGC [AAAGGA] | 1 |
| GCUGUCACCGGUGCUUGGUACGUUAUAUUCAGCCGGUCUGAUGAGUCUGGGGCCAGACGAAACAGC [GGGGCC] | 0 |
| GCUGUCACCGGUGCUUGGUACGUUAUAUUCAGCCGGUCUGAUGAGUCUAAGUCGAGACGAAACAGC [AAGUCG] | 0 |
| GCUGUCACCGGUGCUUGGUACGUUAUAUUCAGCCGGUCUGAUGAGUCUUAGUAAAGACGAAACAGC [UAGUAA] | 2 |
| GCUGUCACCGGUGCUUGGUACGUUAUAUUCAGCCGGUCUGAUGAGUCUAAAGAUAGACGAAACAGC [AAAGAU] | 2 |
| GCUGUCACCGGUGCUUGGUACGUUAUAUUCAGCCGGUCUGAUGAGUCUUUGGUGAGACGAAACAGC [UUGGUG] | 2 |
| GCUGUCACCGGUGCUUGGUACGUUAUAUUCAGCCGGUCUGAUGAGUCUCGUAAUAGACGAAACAGC [CGUAAU] | 2 |
| GCUGUCACCGGUGCUUGGUACGUUAUAUUCAGCCGGUCUGAUGAGUCUGUUGGUAGACGAAACAGC [GUUGGU] | 0 |
| GCUGUCACCGGUGCUUGGUACGUUAUAUUCAGCCGGUCUGAUGAGUCUGUCGUAAGACGAAACAGC [GUCGUA] | 2 |
| GCUGUCACCGGUGCUUGGUACGUUAUAUUCAGCCGGUCUGAUGAGUCUACGACGAGACGAAACAGC [ACGACG] | 1 |
| GCUGUCACCGGUGCUUGGUACGUUAUAUUCAGCCGGUCUGAUGAGUCUAUUAGGAGACGAAACAGC [AUUAGG] | 0 |
| GCUGUCACCGGUGCUUGGUACGUUAUAUUCAGCCGGUCUGAUGAGUCUGGCCAUAGACGAAACAGC [GGCCAU] | 1 |
| GCUGUCACCGGUGCUUGGUACGUUAUAUUCAGCCGGUCUGAUGAGUCUAACAUCAGACGAAACAGC [AACAUC] | 0 |
| GCUGUCACCGGUGCUUGGUACGUUAUAUUCAGCCGGUCUGAUGAGUCUCUAGAUAGACGAAACAGC [CUAGAU] | 1 |
| GCUGUCACCGGUGCUUGGUACGUUAUAUUCAGCCGGUCUGAUGAGUCUAUCUCGAGACGAAACAGC [AUCUCG] | 2 |
| GCUGUCACCGGUGCUUGGUACGUUAUAUUCAGCCGGUCUGAUGAGUCUAAUCGGAGACGAAACAGC [AAUCGG] | 2 |
| GCUGUCACCGGUGCUUGGUACGUUAUAUUCAGCCGGUCUGAUGAGUCUGGAAUUAGACGAAACAGC [GGAAUU] | 1 |
| GCUGUCACCGGUGCUUGGUACGUUAUAUUCAGCCGGUCUGAUGAGUCUUCCUUGAGACGAAACAGC [UCCUUG] | 0 |
| GCUGUCACCGGUGCUUGGUACGUUAUAUUCAGCCGGUCUGAUGAGUCUGAGUAGAGACGAAACAGC [GAGUAG] | 0 |
| GCUGUCACCGGUGCUUGGUACGUUAUAUUCAGCCGGUCUGAUGAGUCUGCAUUAAGACGAAACAGC [GCAUUA] | 2 |
| GCUGUCACCGGUGCUUGGUACGUUAUAUUCAGCCGGUCUGAUGAGUCUAAGGAAAGACGAAACAGC [AAGGAA] | 2 |
| GCUGUCACCGGUGCUUGGUACGUUAUAUUCAGCCGGUCUGAUGAGUCUAUAACAAGACGAAACAGC [AUAACA] | 1 |
| GCUGUCACCGGUGCUUGGUACGUUAUAUUCAGCCGGUCUGAUGAGUCUAAUCCAAGACGAAACAGC [AAUCCA] | 2 |
| GCUGUCACCGGUGCUUGGUACGUUAUAUUCAGCCGGUCUGAUGAGUCUUGUAAUAGACGAAACAGC [UGUAAU] | 1 |
| GCUGUCACCGGUGCUUGGUACGUUAUAUUCAGCCGGUCUGAUGAGUCUGAGUGGAGACGAAACAGC [GAGUGG] | 2 |
| GCUGUCACCGGUGCUUGGUACGUUAUAUUCAGCCGGUCUGAUGAGUCUUUUGGAAGACGAAACAGC [UUUGGA] | 2 |
| GCUGUCACCGGUGCUUGGUACGUUAUAUUCAGCCGGUCUGAUGAGUCUAUUGGAAGACGAAACAGC [AUUGGA] | 0 |
| GCUGUCACCGGUGCUUGGUACGUUAUAUUCAGCCGGUCUGAUGAGUCUCACACUAGACGAAACAGC [CACACU] | 0 |
| GCUGUCACCGGUGCUUGGUACGUUAUAUUCAGCCGGUCUGAUGAGUCUGCUGAUAGACGAAACAGC [GCUGAU] | 1 |
| GCUGUCACCGGUGCUUGGUACGUUAUAUUCAGCCGGUCUGAUGAGUCUUACGAUAGACGAAACAGC [UACGAU] | 0 |
| GCUGUCACCGGUGCUUGGUACGUUAUAUUCAGCCGGUCUGAUGAGUCUGGAGAUAGACGAAACAGC [GGAGAU] | 0 |
| GCUGUCACCGGUGCUUGGUACGUUAUAUUCAGCCGGUCUGAUGAGUCUGUUGGAAGACGAAACAGC [GUUGGA] | 0 |
| GCUGUCACCGGUGCUUGGUACGUUAUAUUCAGCCGGUCUGAUGAGUCUAUUUUAAGACGAAACAGC [AUUUUA] | 1 |

Origin of measurements: the supplement of paper PMC6757056
